measured-on: EHMT2 (Homo sapiens)
Construct: host or cells: MDA-MB-231
Sequence (Q96KQ7 whole entry): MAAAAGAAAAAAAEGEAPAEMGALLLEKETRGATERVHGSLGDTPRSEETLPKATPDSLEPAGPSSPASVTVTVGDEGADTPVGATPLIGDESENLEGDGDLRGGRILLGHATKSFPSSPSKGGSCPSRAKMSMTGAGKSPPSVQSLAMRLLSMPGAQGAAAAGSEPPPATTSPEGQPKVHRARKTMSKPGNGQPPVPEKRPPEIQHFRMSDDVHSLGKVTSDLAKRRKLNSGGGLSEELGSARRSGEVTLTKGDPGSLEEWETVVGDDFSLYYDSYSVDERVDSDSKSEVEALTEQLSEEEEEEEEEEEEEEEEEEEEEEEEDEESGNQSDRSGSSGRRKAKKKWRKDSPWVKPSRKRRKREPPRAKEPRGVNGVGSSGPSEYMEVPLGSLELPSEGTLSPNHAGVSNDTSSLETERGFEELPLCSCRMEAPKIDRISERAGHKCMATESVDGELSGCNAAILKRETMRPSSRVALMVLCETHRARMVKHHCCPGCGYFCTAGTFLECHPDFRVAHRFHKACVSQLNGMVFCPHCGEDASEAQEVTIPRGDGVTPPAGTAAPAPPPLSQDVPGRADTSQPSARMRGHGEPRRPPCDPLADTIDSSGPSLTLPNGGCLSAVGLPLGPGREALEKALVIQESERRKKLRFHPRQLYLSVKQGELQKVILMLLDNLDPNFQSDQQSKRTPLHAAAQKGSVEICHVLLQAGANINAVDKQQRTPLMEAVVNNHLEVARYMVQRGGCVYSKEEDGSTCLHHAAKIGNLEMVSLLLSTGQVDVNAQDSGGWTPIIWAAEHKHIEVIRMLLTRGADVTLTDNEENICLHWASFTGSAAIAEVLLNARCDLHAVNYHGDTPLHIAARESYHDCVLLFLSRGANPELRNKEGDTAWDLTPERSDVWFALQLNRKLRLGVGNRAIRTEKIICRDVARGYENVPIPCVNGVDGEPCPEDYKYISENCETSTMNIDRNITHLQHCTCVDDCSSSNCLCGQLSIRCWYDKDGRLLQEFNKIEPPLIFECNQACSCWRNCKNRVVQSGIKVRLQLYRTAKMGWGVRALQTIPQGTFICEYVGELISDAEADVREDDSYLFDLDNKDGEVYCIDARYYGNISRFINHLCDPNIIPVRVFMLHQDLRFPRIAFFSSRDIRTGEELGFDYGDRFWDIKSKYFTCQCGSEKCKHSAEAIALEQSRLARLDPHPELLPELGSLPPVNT
assay-name: MDA-MB-231 H3K9me2 in-cell Western assay (EHMT2 ICW)
Format: cell-based
condition-label: H3K9me2 in-cell Western, MDA-MB-231 cells; read-out: EHMT2 ICW (IC50 μM)
# IC50 per record follows

Some compounds with recorded IC50:
[
  {
    "compound": "CNc1ccnc(NC2CCCNC2)n1 (stereo not drawn)",
    "IC50": "> 10 µM"
  },
  {
    "compound": "COc1cc2c(C3CCN(C)CC3)nc(N(C)C)nc2cc1OCCCN1CCCC1",
    "IC50": "0.1 to 1 µM"
  },
  {
    "compound": "CNc1nc(C2CCCCC2)c2cc(OC)c(OCCCN3CCCC3)cc2n1",
    "IC50": "1 to 10 µM"
  }
]

We next turn to a different compound, shown below.
(Q) Requested field: IC50. Item: "CNc1cc(C)nc(Nc2cnc(OC)c(OC[C@@H]3CCN(C4CC4)C3)c2)n1"
(A) < 0.1 µM
